The origin of these recorded values is the nanobody polyreactivity screen of Harvey et al. (2022).

assayProtocol: yeast display, Sf9 membrane polyspecificity reagent, FACS + sequencing; frameworks hold sequencing errors
experimentalEndpoint: polyreactivity (PSR sort gate)

QVQLVESGGGLVQAGGSLRLSCAASGRIFDYYAMGWYRQAPGKERELVAVINRDGSTYYADSVKGRFTISRDNAKNTVYLQMNSLKPEDTAVYYCARDSAWAARGPFTDGAYDSWGQGTQVTVSS low polyreactivity
QVQLEESGGGLVQAGGSLRLSCAASGIIFRCYCMGWYRQAPGKDRELVATITSGGRTNYADSVKGRFTISRDKAKNTVYLQMNSLNTEDTAVYYCAAARLFAMDYWGQGTQVTVSS low polyreactivity
QVQLVESGGGLVQAGGSLRLSCAASGSTFDANAMGWYRQAPGKERELVAAISSSGVRTYYADSVKGRFTISRDNAKNTVYLQMNSLKPEDTAVYYCAAGVVISTVDVTYGYWGQGTQVTVSS low polyreactivity
QVQLVESGGGLVQAGGSLRLSCAASGRIFGVYAMGWYRQAPGKEREFVARISWHGGRTYYADSVKGRFTISRDNAKNTVYLQMNSLKPEDTAVYYCAADHGYPSRLDYWGQGTQVTVSS high polyreactivity
QVQLVESGGGIVQAGGSLRLSCSASGFSFSSYAMGWYRQAPGKERELVASITWSGGRTYYADSVKGRFTISRDNAKNTVYLQMNSLKPEDTAVYYCAPGDVNWSYSLLYTVVLFDSWGQGTQVTVSS high polyreactivity

-- ask Recall and state the measured polyreactivity (PSR sort gate) for "QVQLEESGGGLVQAGGSLRLSCAASGFTLDTYAMGWYRQAPGKERELVAAITSRGGTTYYADSVKGRFTISRDNAKNTVYLQMNSLKPEDTAVYYCNAVTKRWWYRTGYGYWGQGTQVTVSS" .
-- reply high polyreactivity

-- ask For the sequence "QVQLGESGGGLVQAGGSLRLSCAASGIILHGYAMGWYRPAPGKEREFVATITLSGSSTYYADSVKGRFTISRDNAKNTVYLQMNSRKAEDTAVYYSAARTWVIVYGLQYDYWGHGTQVTVSS" , give its measured polyreactivity (PSR sort gate) value.
-- reply high polyreactivity

* * *

assayProtocol: yeast display, Sf9 membrane polyspecificity reagent, FACS + sequencing; frameworks hold sequencing errors
experimentalEndpoint: polyreactivity (PSR sort gate)

QVQLVESGGGLVQAGGSLRLSCAASGRIFTPYVMGWYRQAPGKERELVADINLSGDSTSYADSVKGRFTISRDNAKNTVYLQMNSLKPEDTAVYYCNADSYIYVGNDQYDYWGQGTQVTVSS low polyreactivity
QVQLVESGGGLVQAGGSLRLSCAASGSTFVWYAMGWYRQAPGKERELVAAISSGGSTNYADSVKGRFTISRDNAKNTVYLQMNSLKPEDTAVYYCAAKAYFSSYWRWRGAMDHWGQGTQVTVSS low polyreactivity
QVQLVESGGGLVQAGGSLRLSCAASGFTFSNNVMGWYRQAPGKERELVADITDSGGDTYYADSVKGRFTISRDNAKNTVYLQMNSLKPEDTAVYYCAARPQHFDLDLAYSGFDYWGQGTQVTVSS high polyreactivity
QVQLVELGGGLVQAGGSLRLSCAASGRIFTHNAMGWYRQAPGKDRELVAAISYSGVSTYYADSVKGRFTISRDNAKNTVYLQMNSLKPEDTAVYYCARRYWYPDAFYRYDYWGQGTQVTVSS low polyreactivity

-- ask Answer with the recorded polyreactivity (PSR sort gate) for the sequence listed here: "QVQLVESGGGLVQAGGSLRLSCAASGRTSLGYDMGWYRQAPGKERELVAAITRGGSTYYADSVKGRFTISRDNAKNTVYLQMNSLKPEDTAVYYCAARPWTSASYDYWGQGTQVTVSS"
-- reply low polyreactivity

-- ask Report measured polyreactivity (PSR sort gate); entry is "QVQLVESGGGLVQAGGSLRLSCAASGSTFAYYTMGWYRQAPGKERELVAAISKSGGSTTYADSVKGRFTISRDNAKNTVYLQMNSLKPEETAVYYCAAARKYYGYNYWGQGTQVTVSS"
-- reply high polyreactivity

-- ask Return polyreactivity (PSR sort gate) (reported value) for this sequence: "QVQRVESGGGLVQAGGSLRLSCAASGRISSWNAMGWYRQAPGKERELVATISRRGGSTYYADSVKGRFTISRDNAKNTVYFQMNSLKQEDTAVYYCAKSSWTYGAYNYWGQGTQVTVSS"
-- reply high polyreactivity

-- ask Identify the reported polyreactivity (PSR sort gate) for the following entry. "QVHLVESGGGLVQAGGSLRLSCAASGFTFRVYAMGWYRPAPGKERELVAAITKRGGSTYYADSVKGRFTISRDNAKNTVYLQMNSLKPEDTAGYYCATENTPHYASHGYWGQGTQVTVSS"
-- reply high polyreactivity

-- ask Quick one: give measured polyreactivity (PSR sort gate) for "QVQLVDSGGGLFQAGGSLRLSCAASGSTFYRYAKGWYRQAPGKERELVATITNSGGSTYYADSVKGRFTISRDNAKNTVYLPRNSLKPEDTAVYYCAAVGGRLRGDRGGYWGQGSQVTVSS"
-- reply high polyreactivity

-- ask Dear colleague, please send me the reported polyreactivity (PSR sort gate) for "QVHLVESGGGLVQAGGSLRLSCAASGFTFKDYAMGWYRQAPGKHTELVAAISYSGGSTYYADSVKGRFTISRDNAKNTVYLQMYSLKPEDTAVYYCNKGYPYVAYDYWGQGTQVTVSS" when you can.
-- reply high polyreactivity
